Measured log10 of Ki by item
- TEST SYSTEM: Melanin-concentrating hormone receptor 1 (Homo sapiens, UniProt Q99705)
- Sequence (Q99705 whole entry): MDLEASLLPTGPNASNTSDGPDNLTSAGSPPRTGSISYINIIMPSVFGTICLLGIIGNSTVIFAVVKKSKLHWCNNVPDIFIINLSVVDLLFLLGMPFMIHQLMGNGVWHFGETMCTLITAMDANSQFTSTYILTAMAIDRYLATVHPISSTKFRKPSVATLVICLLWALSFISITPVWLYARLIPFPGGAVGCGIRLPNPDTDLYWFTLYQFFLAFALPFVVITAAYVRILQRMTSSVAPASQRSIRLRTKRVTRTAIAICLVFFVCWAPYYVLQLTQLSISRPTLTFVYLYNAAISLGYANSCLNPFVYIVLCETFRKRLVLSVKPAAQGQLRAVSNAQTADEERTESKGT
MEASURED METRIC: log10 of Ki (log10 of the value in nM)

- COMPOUND SMILES: "CN1CC[C@@H](N(C)C(=O)N2CC[C@H](N(C)C(=O)c3ccc(-c4cccc(Cl)c4)s3)C2)C1"
  log10 of Ki: 2.51
- COMPOUND SMILES: "COc1ccc(-c2ccc(C(=O)N(C)[C@H]3CCN(C(=O)N(C)[C@@H]4CCN(C)C4)C3)cc2)cc1"
  log10 of Ki: 0.70
- COMPOUND SMILES: "CC(C)c1ccc(-c2ccc(C(=O)N(C)[C@H]3CCN(C(=O)N(C)[C@@H]4CCN(C)C4)C3)s2)cc1"
  log10 of Ki: 0.70
- COMPOUND SMILES: "CN1CC[C@@H](N(C)C(=O)N2CC[C@H](N(C)C(=O)c3ccc(-c4ccc(Cl)cc4Cl)s3)C2)C1"
  log10 of Ki: 0.48
- COMPOUND SMILES: "CN1CC[C@@H](N(C)C(=O)N2CC[C@H](N(C)C(=O)c3ccc(-c4ccc(C#N)cc4)s3)C2)C1"
  log10 of Ki: 3.38
- COMPOUND SMILES: "CN1CC[C@@H](N(C)C(=O)N2CC[C@H](N(C)C(=O)c3ccc(-c4ccc(C(F)(F)F)cc4)s3)C2)C1"
  log10 of Ki: 0.30
- COMPOUND SMILES: "CN1CC[C@H](N(C)C(=O)N2CC[C@@H](N(C)C(=O)c3ccc(-c4ccc(C(F)(F)F)cc4)s3)C2)C1"
  log10 of Ki: 2.28
- COMPOUND SMILES: "CN1CC[C@@H](N(C)C(=O)N2CC[C@H](N(C)C(=O)c3ccc(-c4ccc(Cl)cc4)cc3)C2)C1"
  log10 of Ki: 0.30
- COMPOUND SMILES: "Cc1ccc(-c2ccc(C(=O)N(C)[C@H]3CCN(C(=O)N(C)[C@@H]4CCN(C)C4)C3)s2)cc1"
  log10 of Ki: 0.48
- COMPOUND SMILES: "CN1CC[C@@H](N(C)C(=O)N2CC[C@H](N(C)C(=O)c3ccc(-c4ccccc4C(F)(F)F)s3)C2)C1"
  log10 of Ki: 1.79
- COMPOUND SMILES: "CN1CC[C@@H](N(C)C(=O)N2CC[C@H](N(C)C(=O)c3ccc(-c4ccc(S(C)(=O)=O)cc4)s3)C2)C1"
  log10 of Ki: 3.78
- COMPOUND SMILES: "Cc1cc(Cl)ccc1-c1ccc(C(=O)N(C)[C@H]2CCN(C(=O)N(C)[C@@H]3CCN(C)C3)C2)s1"
  log10 of Ki: 0.48
- COMPOUND SMILES: "CN1CC[C@@H](N(C)C(=O)N2CC[C@H](N(C)C(=O)c3ccc(-c4ccc(Cl)cc4)s3)C2)C1"
  log10 of Ki: 0.30

Reference source for all entries: ChEMBL document CHEMBL1140258
